Biological target: antithrombin III (plasma purified human AT-III), used as the AT-III/unfractionated heparin complex
Assay: K0.5 ratio to Catalyst Biosciences WT FIXa, AT-III/UFH inhibition assay
TEST READOUT: K0.5-mut/K0.5-wt (fold)
Enter your answer as a number in fold; do not include the unit.

Name the recorded K0.5-mut/K0.5-wt of the item FIXa-D203N/F205T/R338E (protein) chain 1: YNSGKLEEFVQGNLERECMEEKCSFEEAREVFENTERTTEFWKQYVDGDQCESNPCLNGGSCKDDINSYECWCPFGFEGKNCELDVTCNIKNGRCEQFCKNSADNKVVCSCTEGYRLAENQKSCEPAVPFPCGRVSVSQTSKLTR chain 2: VVGGEDAKPGQFPWQVVLNGKVNATCGGSIVNEKWIVTAAHCVETGVKITVVAGEHNIEETEHTEQKRNVIRIIPHHNYNAAINKYNHDIALLELDEPLVLNSYVTPICIADKEYTNIFLKFGSGYVSGWGRVFHKGRSALVLQYLRVPLVDRATCLESTKFTIYNNMFCAGFHEGGRDSCQGDSGGPHVTEVEGTSFLTGIISWGEECAMKGKYGIYTKVSRYVNWIKEKTKLT in your answer. 60.5

Name the recorded K0.5-mut/K0.5-wt of the item FIXa-D203N/F205T/E410N (protein) chain 1: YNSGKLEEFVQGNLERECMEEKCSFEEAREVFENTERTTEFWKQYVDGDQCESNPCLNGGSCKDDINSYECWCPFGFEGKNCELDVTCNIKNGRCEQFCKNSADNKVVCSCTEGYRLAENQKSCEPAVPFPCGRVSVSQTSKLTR chain 2: VVGGEDAKPGQFPWQVVLNGKVNATCGGSIVNEKWIVTAAHCVETGVKITVVAGEHNIEETEHTEQKRNVIRIIPHHNYNAAINKYNHDIALLELDEPLVLNSYVTPICIADKEYTNIFLKFGSGYVSGWGRVFHKGRSALVLQYLRVPLVDRATCLRSTKFTIYNNMFCAGFHEGGRDSCQGDSGGPHVTEVEGTSFLTGIISWGEECAMKGKYGIYTKVSRYVNWIKNKTKLT in your answer. 19.5
